TEST: Measured activity expressed as ID50 (analogue)/ID50 (paclitaxel), where ID50 is the concentration of compound leading to 50% inhibition of the rate microtubule disassembly
Assay type: functional
READOUT_TYPE: Activity

>  <COMPOUND>
CC(=O)O[C@H]1C(=O)[C@]2(C)[C@@H](O)CC3OC[C@@]3(OC(C)=O)[C@H]2[C@H](OC(=O)c2ccccc2)[C@]2(O)C[C@H](OC(=O)[C@H](O)[C@H](NC(=O)c3ccc(C)cc3)c3ccccc3)C(C)=C1C2(C)C (some centres not stated)

>  <READOUT_TYPE>
Activity

>  <EXPERIMENTAL_RESULT>
1.1

$$$$

Field: next compound
Fill blank: measured Activity of the compound CC(=O)O[C@@]12COC1C[C@H](O)[C@@]1(C)C(=O)[C@H](O)C3=C(C)[C@@H](OC(=O)[C@H](O)[C@H](NC(=O)N(C)c4ccc[nH]4)C(C)(C)C)C[C@@](O)([C@@H](OC(=O)c4ccccc4)[C@@H]12)C3(C)C (some centres not stated) is ____. 0.96
